Answer each item with its documented logP.
Assay: Partition coefficient, log P of the compound
Format: physicochemical
Details: octanol/water
Lab note: write the figure by itself, no unit.

Ask: Determine from records and report logP for Cc1cc(-c2cnc3cccc(-c4ccc(CN5CCS(=O)(=O)CC5)cc4)c3n2)ccc1C(=O)N1CCN(C)CC1
Reply: 2.8

Ask: Specify reported logP for the compound shown: CN1CCN(c2ccc(-c3cnc4cccc(-c5cc(F)c(CN6CCS(=O)(=O)CC6)c(F)c5)c4n3)cn2)CC1
Reply: 3.8

Ask: Item CN1CCN(c2ccc(-c3cnc4cccc(-c5cc(F)c(CN6CCOCC6)c(F)c5)c4n3)cc2)CC1 : provide logP
Reply: 4

###

Test: Aqueous solubility at pH 6.8
Assay type: physicochemical
EXPERIMENTAL_READOUT: solubility (µg/mL)
# output: bare number, implied unit µg/mL

Ask: Using the record for CN1CCN(c2ccc(-c3cnc4cccc(-c5cc(F)c(CN6CCS(=O)(=O)CC6)c(F)c5)c4n3)cn2)CC1 , state its measured solubility.
Reply: 4

Ask: Supply reported solubility belonging to this compound: CN1CCN(c2ccc(-c3cnc4cccc(-c5cc(F)c(CN6CCOCC6)c(F)c5)c4n3)cc2)CC1
Reply: 4

###

Molecular target: Tyrosine-protein kinase JAK2 (Homo sapiens, UniProt O60674)
Sequence (O60674 whole entry): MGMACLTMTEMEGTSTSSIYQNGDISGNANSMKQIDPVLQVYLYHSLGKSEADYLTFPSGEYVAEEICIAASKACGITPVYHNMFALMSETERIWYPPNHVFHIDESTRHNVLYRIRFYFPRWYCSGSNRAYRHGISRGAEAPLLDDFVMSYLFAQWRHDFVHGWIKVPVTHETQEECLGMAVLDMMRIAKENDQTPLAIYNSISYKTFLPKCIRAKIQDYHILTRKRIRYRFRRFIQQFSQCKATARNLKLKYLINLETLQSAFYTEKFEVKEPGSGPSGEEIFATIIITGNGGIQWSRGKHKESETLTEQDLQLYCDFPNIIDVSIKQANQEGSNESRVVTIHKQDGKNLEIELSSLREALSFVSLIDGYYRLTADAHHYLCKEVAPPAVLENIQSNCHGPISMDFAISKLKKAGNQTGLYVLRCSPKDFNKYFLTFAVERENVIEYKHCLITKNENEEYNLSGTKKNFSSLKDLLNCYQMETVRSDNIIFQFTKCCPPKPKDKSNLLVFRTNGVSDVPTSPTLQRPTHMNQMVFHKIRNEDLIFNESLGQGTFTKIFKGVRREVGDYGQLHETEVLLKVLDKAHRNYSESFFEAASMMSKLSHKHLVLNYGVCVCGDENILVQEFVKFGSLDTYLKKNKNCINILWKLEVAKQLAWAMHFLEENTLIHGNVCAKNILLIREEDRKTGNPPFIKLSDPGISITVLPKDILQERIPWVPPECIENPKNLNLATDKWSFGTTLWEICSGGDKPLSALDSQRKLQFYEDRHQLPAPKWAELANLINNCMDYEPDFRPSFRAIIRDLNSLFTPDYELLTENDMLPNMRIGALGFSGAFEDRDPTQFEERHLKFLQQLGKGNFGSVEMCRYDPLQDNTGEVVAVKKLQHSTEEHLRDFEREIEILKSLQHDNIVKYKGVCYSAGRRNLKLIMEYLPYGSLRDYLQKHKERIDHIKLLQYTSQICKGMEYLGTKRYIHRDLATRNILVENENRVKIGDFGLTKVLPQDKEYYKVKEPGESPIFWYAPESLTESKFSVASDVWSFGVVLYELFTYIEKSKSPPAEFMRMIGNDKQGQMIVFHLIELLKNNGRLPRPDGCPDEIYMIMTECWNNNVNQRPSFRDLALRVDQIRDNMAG
What IC50 was measured for each of the following?
The reply should contain only the number, in nM.

Ask: Enter measured IC50, system Tyrosine-protein kinase JAK2 (Homo sapiens, UniProt O60674), for the molecule shown: COc1cc(-c2cnc3cccc(-c4ccc(CC(=O)N5CCOCC5)cc4)c3n2)cc(OC)c1OC
Reply: 13

Ask: Print Tyrosine-protein kinase JAK2 (Homo sapiens, UniProt O60674) IC50 for Cc1cc(-c2cnc3cccc(-c4ccc(CN5CCS(=O)(=O)CC5)cc4)c3n2)ccc1C(=O)N1CCN(C)CC1 .
Reply: 7.1

Ask: Enter recorded IC50 with Tyrosine-protein kinase JAK2 (Homo sapiens, UniProt O60674) for Cc1cc(-c2cnc3cccc(-c4ccc(CN5CCOCC5)c(F)c4)c3n2)ccc1C(=O)N1CCOCC1 here.
Reply: 12.5

Ask: State recorded IC50 with Tyrosine-protein kinase JAK2 (Homo sapiens, UniProt O60674), entry COc1cc(-c2cnc3cc(F)cc(-c4ccc(CC(=O)N5CCOCC5)cc4)c3n2)cc(OC)c1OC , no comment.
Reply: 101

Ask: Please look at COc1cc(-c2cnc3cc(C)cc(-c4ccc(CC(=O)N5CCS(=O)(=O)CC5)cc4)c3n2)cc(OC)c1OC and tell me its recorded IC50 on Tyrosine-protein kinase JAK2 (Homo sapiens, UniProt O60674).
Reply: 4200

Ask: Enter measured IC50, system Tyrosine-protein kinase JAK2 (Homo sapiens, UniProt O60674), for the molecule shown: COc1cc(-c2cnc3cccc(-c4ccc(CN5CCOCC5)cc4C)c3n2)cc(OC)c1OC
Reply: 685

###

Experiment: Dissociation constant, pKa of the compound
Format: physicochemical
EXPERIMENTAL_READOUT: pKa
Format: numeric value only, no unit, no commentary.

Ask: Tell me measured pKa for Cc1cc(-c2cnc3cccc(-c4ccc(CN5CCS(=O)(=O)CC5)cc4)c3n2)ccc1C(=O)N1CCN(C)CC1 please.
Reply: 3.9

Ask: Please give measured pKa of the following entry: CN1CCN(c2ccc(-c3cnc4cccc(-c5cc(F)c(CN6CCS(=O)(=O)CC6)c(F)c5)c4n3)cn2)CC1
Reply: 3.6

Ask: Give the reported value of pKa for this record: Fc1cc(-c2cccc3ncc(-c4cnn(C5CCNCC5)c4)nc23)cc(F)c1CN1CCOCC1
Reply: 5.5

Ask: Respond only with pKa recorded for CN1CCN(c2ccc(-c3cnc4cccc(-c5cc(F)c(CN6CCOCC6)c(F)c5)c4n3)cc2)CC1
Reply: 4.5

###

Target: Tyrosine-protein kinase JAK3 (Homo sapiens, UniProt P52333)
Sequence (P52333 whole entry): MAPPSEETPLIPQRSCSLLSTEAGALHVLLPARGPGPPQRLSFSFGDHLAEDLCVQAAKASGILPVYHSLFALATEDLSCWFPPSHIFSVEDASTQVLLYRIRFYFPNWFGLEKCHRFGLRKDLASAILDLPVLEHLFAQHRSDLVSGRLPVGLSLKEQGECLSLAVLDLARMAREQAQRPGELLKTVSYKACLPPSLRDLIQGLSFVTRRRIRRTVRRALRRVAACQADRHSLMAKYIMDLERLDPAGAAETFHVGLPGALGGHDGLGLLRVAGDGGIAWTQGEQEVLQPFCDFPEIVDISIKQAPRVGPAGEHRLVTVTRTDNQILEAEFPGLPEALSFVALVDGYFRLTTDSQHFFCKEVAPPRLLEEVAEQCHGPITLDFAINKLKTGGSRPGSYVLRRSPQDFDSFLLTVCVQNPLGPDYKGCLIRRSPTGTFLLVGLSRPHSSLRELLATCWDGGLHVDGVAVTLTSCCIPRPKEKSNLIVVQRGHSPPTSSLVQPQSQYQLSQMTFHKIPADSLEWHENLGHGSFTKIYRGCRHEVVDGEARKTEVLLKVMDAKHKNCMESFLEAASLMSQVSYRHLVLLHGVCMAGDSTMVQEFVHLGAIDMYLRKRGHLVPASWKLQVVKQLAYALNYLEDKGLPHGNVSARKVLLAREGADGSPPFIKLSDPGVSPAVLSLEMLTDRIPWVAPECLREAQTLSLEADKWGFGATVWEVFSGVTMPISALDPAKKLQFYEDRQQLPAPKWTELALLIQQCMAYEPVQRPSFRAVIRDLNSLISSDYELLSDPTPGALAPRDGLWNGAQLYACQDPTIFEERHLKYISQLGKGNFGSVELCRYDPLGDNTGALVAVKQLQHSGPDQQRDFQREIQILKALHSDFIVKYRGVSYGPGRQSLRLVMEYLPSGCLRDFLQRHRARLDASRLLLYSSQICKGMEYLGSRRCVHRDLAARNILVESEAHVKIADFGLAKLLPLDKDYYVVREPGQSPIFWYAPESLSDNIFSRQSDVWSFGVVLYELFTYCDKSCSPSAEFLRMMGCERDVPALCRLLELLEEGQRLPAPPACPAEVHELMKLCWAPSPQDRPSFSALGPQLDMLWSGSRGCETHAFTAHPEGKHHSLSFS
Provide the recorded IC50 for the entries that follow.
Lab book: enter the figure in µM, no units written.

Ask: Look up and report measured IC50 (Tyrosine-protein kinase JAK3 (Homo sapiens, UniProt P52333)) for the following molecule: COc1cc(-c2cnc3cccc(-c4ccc(CN5CCOCC5)cc4C)c3n2)cc(OC)c1OC
Reply: 2.7

Ask: Answer briefly: IC50 recorded on Tyrosine-protein kinase JAK3 (Homo sapiens, UniProt P52333) for COc1cc(-c2cnc3cccc(-c4ccc(CN5CCOCC5)cc4F)c3n2)cc(OC)c1OC
Reply: 9.9

Ask: Supply IC50 measured with Tyrosine-protein kinase JAK3 (Homo sapiens, UniProt P52333) for Cc1cc(-c2cnc3cccc(-c4ccc(CN5CCOCC5)c(F)c4)c3n2)ccc1C(=O)N1CCOCC1 .
Reply: 0.63

Ask: Lab note: record IC50 of CN1CCN(c2ccc(-c3cnc4cccc(-c5cc(F)c(CN6CCOCC6)c(F)c5)c4n3)cc2)CC1 tested on Tyrosine-protein kinase JAK3 (Homo sapiens, UniProt P52333).
Reply: 0.166

###

Hi there, I'd appreciate the recorded Cmax for every entry that follows.
Test: Cmax in rat at 3 mg/kg, po or 1 mg/kg, iv by MS/MS analysis
Type: ADME, organism-based
Conditions: in vivo
Quick reminder: number only, in nM, skip the unit.

Ask: Hello, please tell me recorded Cmax for this one: Fc1cc(-c2cccc3ncc(-c4cnn(C5CCNCC5)c4)nc23)cc(F)c1CN1CCOCC1
Reply: 16

Ask: Please report Cmax for the following molecule: CN1CCN(c2ccc(-c3cnc4cccc(-c5cc(F)c(CN6CCS(=O)(=O)CC6)c(F)c5)c4n3)cn2)CC1
Reply: 47

Ask: Tell me Cmax reported for CN1CCN(c2ccc(-c3cnc4cccc(-c5cc(F)c(CN6CCOCC6)c(F)c5)c4n3)cc2)CC1
Reply: 74

###

Target: Non-receptor tyrosine-protein kinase TYK2 (Homo sapiens, UniProt P29597)
Sequence (P29597 whole entry): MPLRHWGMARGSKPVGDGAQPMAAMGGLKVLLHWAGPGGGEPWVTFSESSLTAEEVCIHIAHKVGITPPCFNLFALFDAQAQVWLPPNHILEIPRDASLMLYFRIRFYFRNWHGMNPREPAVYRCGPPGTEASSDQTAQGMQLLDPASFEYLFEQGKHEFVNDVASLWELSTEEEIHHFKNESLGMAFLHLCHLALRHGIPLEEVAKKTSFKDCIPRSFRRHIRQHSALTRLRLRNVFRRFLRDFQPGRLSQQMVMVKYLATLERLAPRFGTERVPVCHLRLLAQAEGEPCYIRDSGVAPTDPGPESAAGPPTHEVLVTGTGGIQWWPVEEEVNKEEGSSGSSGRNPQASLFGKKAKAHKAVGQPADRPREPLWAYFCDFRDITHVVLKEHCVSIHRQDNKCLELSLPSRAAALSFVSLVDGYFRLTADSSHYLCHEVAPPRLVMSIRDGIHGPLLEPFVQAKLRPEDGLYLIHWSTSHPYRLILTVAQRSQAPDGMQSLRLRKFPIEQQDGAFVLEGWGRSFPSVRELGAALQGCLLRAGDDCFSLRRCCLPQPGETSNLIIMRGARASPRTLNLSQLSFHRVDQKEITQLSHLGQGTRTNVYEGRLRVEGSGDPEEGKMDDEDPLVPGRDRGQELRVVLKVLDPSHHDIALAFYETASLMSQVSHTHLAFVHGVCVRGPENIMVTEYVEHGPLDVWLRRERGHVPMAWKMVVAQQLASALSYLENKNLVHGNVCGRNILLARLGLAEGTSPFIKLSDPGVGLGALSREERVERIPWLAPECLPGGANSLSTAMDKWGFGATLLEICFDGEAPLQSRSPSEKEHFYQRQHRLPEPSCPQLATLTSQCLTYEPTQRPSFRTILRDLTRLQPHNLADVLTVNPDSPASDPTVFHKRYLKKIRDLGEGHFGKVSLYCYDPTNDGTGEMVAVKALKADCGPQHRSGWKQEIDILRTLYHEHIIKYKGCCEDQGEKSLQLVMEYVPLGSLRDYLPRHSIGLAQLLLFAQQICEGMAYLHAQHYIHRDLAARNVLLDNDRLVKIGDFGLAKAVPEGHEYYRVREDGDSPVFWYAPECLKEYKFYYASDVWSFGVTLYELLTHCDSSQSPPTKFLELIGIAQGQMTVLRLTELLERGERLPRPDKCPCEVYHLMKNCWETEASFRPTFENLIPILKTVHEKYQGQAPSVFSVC
Test: Inhibition of recombinant GST tagged TYK2 protein after 60 mins using FITC-Ahx-KKSRGDYMTMQIG-NH2 substrate
Field: IC50. Provide a value for each of the compounds that follow.
Field format: number, assumed nM, no unit text.

Ask: Provide only the value of recorded IC50 for CN1CCN(c2ccc(-c3cnc4cccc(-c5cc(F)c(CN6CCS(=O)(=O)CC6)c(F)c5)c4n3)cn2)CC1
Reply: 86

Ask: Quote IC50 reported for Cc1cc(-c2cnc3cccc(-c4ccc(CN5CCOCC5)c(F)c4)c3n2)ccc1C(=O)N1CCOCC1 please.
Reply: 520

Ask: Fill in reported IC50 for this entry: CNS(=O)(=O)c1ccc(-c2cccc3ncc(-c4cc(OC)c(OC)c(OC)c4)nc23)cc1
Reply: 640

Ask: State, in one line, measured IC50 of COc1cc(-c2cnc3cccc(-c4ccc(C(=O)N5CCOCC5)cc4)c3n2)cc(OC)c1OC
Reply: 2900

Ask: Return IC50 for the following compound: COc1cc(-c2cnc3cccc(-c4ccc(CC(=O)N5CCS(=O)(=O)CC5)cc4)c3n2)cc(OC)c1OC
Reply: 340

Ask: Query IC50 for COc1cc(-c2cnc3cccc(-c4ccc(CN5CCOCC5)c(F)c4)c3n2)cc(OC)c1OC
Reply: 2200

Ask: Quickly give me recorded IC50 for COc1cc(-c2cnc3cccc(-c4ccc(CN5CCS(=O)(=O)CC5)cc4)c3n2)cc(OC)c1OC
Reply: 520

Ask: Fill in IC50 for record Cc1cc(-c2cnc3cccc(-c4cc(F)c(CN5CCOCC5)c(F)c4)c3n2)ccc1C(=O)N1CCOCC1
Reply: 120

Ask: Return reported IC50. Input compound: COc1cc(-c2cnc3cccc(-c4ccc(CN5CCOCC5)cc4C)c3n2)cc(OC)c1OC
Reply: 4200

Ask: Specify IC50 for COc1cc(-c2cnc3cccc(-c4ccc(CN5CCOCC5)c(C)c4)c3n2)cc(OC)c1OC and stop.
Reply: 7130

Ask: Give the value of IC50 reported for the following: COc1cc(-c2cnc3cccc(-c4ccc(CN5CCOCC5)cc4F)c3n2)cc(OC)c1OC
Reply: 9300

Ask: Specify reported IC50 for the compound shown: Cc1cc(-c2cccc3ncc(-c4ccc(C(=O)N5CCOCC5)c(C)c4)nc23)ccc1CN1CCOCC1
Reply: 439

Ask: Output IC50 of COc1cc(-c2cnc3cccc(-c4ccc(C(=O)N5CCOCC5)c(C)c4)c3n2)cc(OC)c1OC
Reply: 1400

Ask: Identify IC50 associated with the compound CN1CCN(c2ccc(-c3cnc4cccc(-c5cc(F)c(CN6CCOCC6)c(F)c5)c4n3)cc2)CC1
Reply: 94
